System: FXR:RXRa (NR concentration 270 nM, RXRa partner concentration 90 nM)
Test: PBM binding z-score (relative to random genomic background probes); higher = stronger binding; sequences stand for … in GC…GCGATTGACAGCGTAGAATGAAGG
test readout: PBM binding z-score
# output: bare number, no unit

Previously resolved entries follow.
TCTCGGAGGACACGAATGGTCAGAGCTCGACATC ... 0.104
AGAACGAGGGCAATGAGTTGATAGAACGGGTGGC ... 0.324
GGGACGAGGGCATTCGAGTTGATAGCATGGCGAT ... 1.09
ATCGAAAGGTCGAGGTGCGTATAGAGAAAGGGAA ... 3.98
TCTCGGAGGACACGAAGTTCAGAGCTTTCCAGAG ... 0.621

Problem: Using the record for `AATACAGGGGCATCGTAGGCCAGAGTACGCACAG` , report its PBM binding z-score.
Solution: 0.565

Problem: Using the record for `CGTCAAAGTTCAACGTAACGTAACAGAAAGCAGC` , report its PBM binding z-score.
Solution: 6.54

Problem: Using the record for `TCTAGTTAGTCACGGAGGTCACACACGACGGGTA` , report its PBM binding z-score.
Solution: 3.07

Problem: Using the record for `TCTAGTTGGTCACGGAGGTCACACTCGACGGGTA` , report its PBM binding z-score.
Solution: 3

Problem: Using the record for `TCAAGTAGGTTAGTCGGGGCATTCAGCCAACATA` , report its PBM binding z-score.
Solution: 0.926

Problem: Using the record for `CTCGAAAGGTCGTGCTCAGGAGAGTATACCAAAC` , report its PBM binding z-score.
Solution: 4.89

Problem: Using the record for `TCATATAGGTACACAGGTGAAAGTCCGTAAGTTA` , report its PBM binding z-score.
Solution: 0.94

Problem: Using the record for `ACTTACGGGTCACCGAGGTTATAGCACGCGTATA` , report its PBM binding z-score.
Solution: 7.33

Problem: Using the record for `TCATATAGGTAAAGGTGACAGTCGAACGATATGA` , report its PBM binding z-score.
Solution: 0.847

====

Test system: PPARg:RXRa (NR concentration 180 nM, RXRa partner concentration 90 nM)
Test: PBM binding z-score (relative to random genomic background probes); higher = stronger binding; sequences stand for … in GC…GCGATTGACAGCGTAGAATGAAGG
Use 1 as the dividing line for PBM binding z-score, with the line itself on the yes side and lower values as no.

# count of solved cases: 4
GCTAGCAGGCCATTTGGGTCGCTCAATGACGGGC ... no
ATCTCTATGTAAAGTTCAGTGAAAGATCGATAGA ... yes
GGAACGAGGGCAAAGTTGATAGCCTCTGTCGACG ... yes
ATCTCTAGGTAAAGATAGTTCAGTGATTGCAAAT ... no

Problem: Dear colleague, could you confirm whether `AGTCAAAGTTCAGGACGAGGTAACGTGAAGCACG` has PBM binding z-score at or above 1?
Solution: yes

Problem: Dear colleague, could you confirm whether `ATCGAAAGGTCGAGGGGAGTATAGAGAAAGGGAA` has PBM binding z-score at or above 1?
Solution: yes

====

System: LXRb:RXRa (NR concentration 270 nM, RXRa partner concentration 90 nM)
Assay: PBM binding z-score (relative to random genomic background probes); higher = stronger binding; sequences stand for … in GC…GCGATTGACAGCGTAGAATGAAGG
Classes (PBM binding z-score): group 1 = under 0.6, group 2 = from 0.6 up to 2, group 3 = 2 and over

# count of solved cases: 3
TCTTGTAGATCGACAGGAGGTTAAGAAAGATCGA ... group 2
GCTATTAGTTGAAAGGGCAACCGAATGATTCTCG ... group 2
TTTAGTTGGTCACGGAGGTCACACACGACGGGTA ... group 3

Problem: Which category does the recorded PBM binding z-score put `CCTGCTAGGGCATGGTCAGCTAATCTACAGTATG` in?
Solution: group 1

Problem: Which category does the recorded PBM binding z-score put `CCTTTCGGGTCAAGGTTATAGCACGGGTGGTACG` in?
Solution: group 3

====

Reported PBM binding z-score is given for each of the following sequences.
Tested on: PPARa:RXRa (NR concentration 270 nM, RXRa partner concentration 90 nM)
Assay: PBM binding z-score (relative to random genomic background probes); higher = stronger binding; sequences stand for … in GC…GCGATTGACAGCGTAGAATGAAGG
# output: bare number, no unit

Previously resolved entries follow.
TTTCAAAGTTCAAAGGTAACGTAAGTATCCACAC ... 5.69
ATATGTAGGTTAAGGGTGATTCAGGTTGGTTCGC ... 4.98
CCGACTGGGGAAGAAAGGTTACCATACCATCCGG ... 2.22
TCATATAGGTAAATGCTAGGTGTAAGTCCGATCT ... 1.05
TTACCAAGTTGAAAGGTCGTTGATGCACGCCTTG ... 3.78

Problem: Using the record for `GGAACGAGCGCAAGTTGATAGCAGAGTTTGATGG` , report its PBM binding z-score.
Solution: -0.641

Problem: Using the record for `TGAATGAGGTTAAAGATCACGGAACGTGGCGTCG` , report its PBM binding z-score.
Solution: 5.33

Problem: Using the record for `CGAACTATGTCATTGACAGGACAGTGAATAGTAA` , report its PBM binding z-score.
Solution: 0.765

Problem: Using the record for `ATATGTAGGTTGAGGGTCATTCAGGTTGGTTCGC` , report its PBM binding z-score.
Solution: 4.86

Problem: Using the record for `CCTAGCAGGCCAGGGTTACTCAAGCATTTCGCTT` , report its PBM binding z-score.
Solution: 0.412

Problem: Using the record for `CCTATTAGTTGACCATAAGGGTAACCGAAGCTCG` , report its PBM binding z-score.
Solution: 0.678

Problem: Using the record for `ATATGTAGGCTACATCCGGGTCATTCAGGCTATG` , report its PBM binding z-score.
Solution: 3.62

Problem: Using the record for `CGTCCAAGGTCAGAGAGGTCAGAGAATGCCGAGT` , report its PBM binding z-score.
Solution: 5.1

Problem: Using the record for `CGTCCAAGGTCAATGCTAGGTCAGTAAAAGCATT` , report its PBM binding z-score.
Solution: 5.23

Problem: Using the record for `GCTGCTAGGTCAGGTTGGTCAGCTCACGGGTACG` , report its PBM binding z-score.
Solution: 1.57

Problem: Using the record for `GCTAGCGGGCCATTTGGGTCACTCAATGACGGGC` , report its PBM binding z-score.
Solution: 1.26

Problem: Using the record for `CCTTACGGGTCAATGTTATAGCACGGGTGGTACG` , report its PBM binding z-score.
Solution: 3.96

Problem: Using the record for `TCTATTAATTGATTAGGGCAACCGAAACAGCGGA` , report its PBM binding z-score.
Solution: 0.559

Problem: Using the record for `ATCTCTAGGTAAAGTTCAGTGAGAGATCGATAGA` , report its PBM binding z-score.
Solution: 2.42

Problem: Using the record for `GATACAGGGTCAGCTAGAGGCCAAAGTATGGAAA` , report its PBM binding z-score.
Solution: 4.59

Problem: Using the record for `CCTTACGGGTCACTGACACGTTATAGCATTTGGA` , report its PBM binding z-score.
Solution: 5.4

====

Tested on: RARb homodimer (NR concentration 270 nM)
Test: PBM binding z-score (relative to random genomic background probes); higher = stronger binding; sequences stand for … in GC…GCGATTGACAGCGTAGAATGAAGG
test readout: PBM binding z-score
# output: bare number, no unit

Previously resolved entries follow.
CCTACTGGGCCATCAGGTCATTGGTATCAACGTT ... 2.99
CGAACTAGGTCAGTACAGGACAGTGAAGGATGAT ... 2.51
ACAGACAGGTGGTGAAGGTAACTCAGGCTATCAT ... 0.218

Switching to the query record.
Problem: Using the record for `TCTATTAGTTGAAGGGCAACCGTCGAGTCCGTTT` , report its PBM binding z-score.
Solution: 1.41

====

Tested on: VDR homodimer (NR concentration 270 nM)
Test: PBM binding z-score (relative to random genomic background probes); higher = stronger binding; sequences stand for … in GC…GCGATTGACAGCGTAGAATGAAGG
Classes (PBM binding z-score): Low (below 0.04), Medium (0.04 to below 1), High (1 or more)

# count of solved cases: 8
CGTTACGGGTCACTGACAGGTTATAGCATTTGGA ... Medium
TCGAGTAGGTTAGTCGCGGCATTCAGCCAACATA ... Low
TCATATAGGTAAAGGTGAAAGTGGAACGATATGA ... Low
TCATATAGGTAAAGGTGAAGGTCGAACGATATGA ... Medium
GCTTGTAGATCAAGGTTAAGAAAGACTAAGCTAA ... Low
CCTCGTAGGACAACAGGAGGTCAGAGCTGCCAGA ... Medium
CCTAGCAGGGCAGGGTCACTCAAGCATTTCGCTT ... High
GATACAGGGTCAAGGCTAGAGTACGCGTATTGAT ... High

Problem: Which category does the recorded PBM binding z-score put `GCTCGGAGTACAAGGTCAGAGCTTTGTCCGTAGA` in?
Solution: Medium

Problem: Which category does the recorded PBM binding z-score put `ATCTCTAGGTAACCAAGTTCAGTGAGTGCCGAAC` in?
Solution: High

Problem: Which category does the recorded PBM binding z-score put `TCTTGTAGATCAACAGGAGGTTAACAAAGATCGA` in?
Solution: Low

Problem: Which category does the recorded PBM binding z-score put `CCTTACGGGTCACTGACAGTTTATAGCATTTGGA` in?
Solution: High

Problem: Which category does the recorded PBM binding z-score put `CGAACTAGGTCATCCAGGACAGTGCATACATTGA` in?
Solution: High

Problem: Which category does the recorded PBM binding z-score put `ATATGTAGGTTATCTGGTCATTCAGTTTGCGCAT` in?
Solution: High

Problem: Which category does the recorded PBM binding z-score put `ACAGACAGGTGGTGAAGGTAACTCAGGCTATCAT` in?
Solution: Low

Problem: Which category does the recorded PBM binding z-score put `CAGCCTATGTCAGGGCCAGTATAGGAGGAACGTT` in?
Solution: Low

Problem: Which category does the recorded PBM binding z-score put `AGAACGAGGGCAATGAATTGATAGCACGGGTGGC` in?
Solution: Medium

Problem: Which category does the recorded PBM binding z-score put `GATACAGGGTCAAGGACAGAGTACGCGTATTGAT` in?
Solution: High

Hey, just so you know, these numbers are from the supplement of paper PMC6555819.
